I'd appreciate it if you could supply Euclidean distance values for the items below.
tested on: DU145; test: Euclidean distance of Cell Painting phenotypic profile (signed KS, 77 features) to DMSO centroid (dimensionless distance); 5 or 10 uM (library dependent); higher = stronger phenotypic change vs DMSO (phenoactivity); settings: 48 h
Where a name gives a salt, the structure may show the parent alone.
# print the numeric value only

**Q:** For `Cc1c(C(=O)NN2CCCCC2)nn(-c2ccc(Cl)cc2Cl)c1-c1ccc(Cl)cc1` , write its Euclidean distance.
**A:** 1.04

**Q:** For `CCO[C@@H]1OC(=O)C[C@@H]1NC(=O)[C@@H]1CCCN1C(=O)[C@@H](NC(=O)c1ccc(N)c(Cl)c1)C(C)(C)C` , write its Euclidean distance.
**A:** 2.17

**Q:** For `COC(=O)N[C@H](C(=O)N1CC2(CC2)C[C@H]1c1nc(-c2ccc3c(c2)C(F)(F)c2cc(-c4ccc5[nH]c([C@@H]6[C@H]7CC[C@H](C7)N6C(=O)[C@@H](NC(=O)OC)C(C)C)nc5c4)ccc2-3)c[nH]1)C(C)C` , write its Euclidean distance.
**A:** 1.33

**Q:** For `CC1=CC[C@@](O)(C(C)C)CC1` , write its Euclidean distance.
**A:** 0.827

**Q:** For `COc1ccc(F)c(F)c1C(=O)c1cnc(NC2CCN(S(C)(=O)=O)CC2)nc1N` , write its Euclidean distance.
**A:** 2.68

**Q:** For `COc1ccc(C[C@H](NC(=O)[C@H](C)NC(=O)CN2CCOCC2)C(=O)N[C@@H](Cc2ccccc2)C(=O)[C@@]2(C)CO2)cc1` , write its Euclidean distance.
**A:** 5.11

**Q:** For `N#CC[C@H](C1CCCC1)n1cc(-c2ncnc3[nH]ccc23)cn1` , write its Euclidean distance.
**A:** 1.36

**Q:** For `N[C@@H](CCC(=O)N[C@@H](CS)C(=O)NCC(=O)O)C(=O)O` , write its Euclidean distance.
**A:** 1.48

**Q:** For Nc1nc2[nH]cc(CCc3ccc(C(=O)N[C@@H](CCC(=O)O)C(=O)O)cc3)c2c(=O)[nH]1 [Pemetrexed Disodium Hydrate] , write its Euclidean distance.
**A:** 1.28

**Q:** For `OCCN1CCN(CCCN2c3ccccc3Sc3ccc(Cl)cc32)CC1` , write its Euclidean distance.
**A:** 1.77

**Q:** For O=C(O[C@@H]1C[C@@H]2C[C@H]3C[C@H](C1)N2CC3=O)c1c[nH]c2ccccc12 [Dolasetron Mesylate] , write its Euclidean distance.
**A:** 0.963

**Q:** For CC(CCc1ccc(O)cc1)NCC(O)c1ccc(O)cc1 (centres undefined) [Ractopamine HCl] , write its Euclidean distance.
**A:** 0.987

**Q:** For `O=C(NOC[C@H](O)CO)c1ccc(F)c(F)c1Nc1ccc(I)cc1F` , write its Euclidean distance.
**A:** 3.66

**Q:** For `O=C(c1ccc(F)cc1)C1CCN(CCn2c(=O)[nH]c3ccccc3c2=O)CC1` , write its Euclidean distance.
**A:** 0.898

**Q:** For `CS(=O)(=O)c1ccc(C(=O)Nc2ccc(Cl)c(-c3ccccn3)c2)c(Cl)c1` , write its Euclidean distance.
**A:** 0.671

**Q:** For `O=C(O)c1cc(-c2ccccc2)nc2ccccc12` , write its Euclidean distance.
**A:** 1.3

**Q:** For `O=C(Nc1ccccc1)c1cc([N+](=O)[O-])ccc1Cl` , write its Euclidean distance.
**A:** 0.645

**Q:** For CC(=O)/N=c1/sc(S(N)(=O)=O)nn1C [Methazolamide] , write its Euclidean distance.
**A:** 0.818

**Q:** For `Cc1c(Nc2ncccc2C(=O)O)cccc1C(F)(F)F` , write its Euclidean distance.
**A:** 0.874

**Q:** For `Cc1cc(N2CCOCC2)ccc1Nc1nc(NC2CCCCC2)c2[nH]cnc2n1` , write its Euclidean distance.
**A:** 1.25

**Q:** For NC1CCN(c2nc3c(cc2F)c(=O)c(C(=O)O)cn3-c2ccc(F)cc2F)C1 (centres undefined) [Tosufloxacin p-Toluenesulfonate Hydrate] , write its Euclidean distance.
**A:** 0.829

**Q:** For COc1ccc(C[C@H](N)C(=O)N[C@H]2[C@@H](O)[C@H](n3cnc4c(N(C)C)ncnc43)O[C@@H]2CO)cc1 [Puromycin 2HCl] , write its Euclidean distance.
**A:** 4.87

**Q:** For CCC(Cc1c(I)cc(I)c(N)c1I)C(=O)O (centres undefined) , write its Euclidean distance.
**A:** 0.812

**Q:** For CCCCN1CCCCC1C(=O)Nc1c(C)cccc1C (centres undefined) [Bupivacaine HCl] , write its Euclidean distance.
**A:** 1.45

**Q:** For Cc1ccc([C@@H]2O[C@H](CO)[C@@H](O)[C@H](O)[C@H]2O)cc1Cc1ccc(-c2ccc(F)cc2)s1 [Canagliflozin hemihydrate] , write its Euclidean distance.
**A:** 0.936

**Q:** For CC(C)NCC(O)COc1cccc2[nH]c3ccccc3c12 (centres undefined) , write its Euclidean distance.
**A:** 1.12

**Q:** For CN(C)CCC(c1ccccc1)c1ccccn1 (centres undefined) [Pheniramine Maleate] , write its Euclidean distance.
**A:** 0.777

**Q:** For CO/N=C(\C(=O)N[C@@H]1C(=O)N2C(C(=O)O)=C(COC(N)=O)CS[C@H]12)c1ccco1 [Cefuroxime sodium] , write its Euclidean distance.
**A:** 0.747

**Q:** For NS(=O)(=O)c1ccccc1 [Benzenesulfonamide] , write its Euclidean distance.
**A:** 1.05

**Q:** For C[N+](C)(C)NCCC(=O)[O-] [Mildronate] , write its Euclidean distance.
**A:** 1.05

**Q:** For `CN(C)CC(=O)Nc1ccc2[nH]c(=O)c3ccccc3c2c1` , write its Euclidean distance.
**A:** 0.921

**Q:** For `Cc1nc(=O)c2cc(CN(C)c3ccc(C(=O)N[C@@H](CCC(=O)O)C(=O)O)s3)ccc2[nH]1` , write its Euclidean distance.
**A:** 0.703

**Q:** For CNCCC=C1c2ccccc2CCc2ccccc21 [Nortriptyline hydrochloride] , write its Euclidean distance.
**A:** 1.37

**Q:** For `CCN(CC)CCNC(=O)c1c(C)[nH]c(/C=C2\C(=O)Nc3ccc(F)cc32)c1C` , write its Euclidean distance.
**A:** 2.98

====

I'd appreciate it if you could supply Euclidean distance values for the items below.
test system: DU145; experiment: Euclidean distance of Cell Painting phenotypic profile (signed KS, 77 features) to DMSO centroid (dimensionless distance); 5 or 10 uM (library dependent); higher = stronger phenotypic change vs DMSO (phenoactivity); settings: 48 h
Structures can show the parent of a compound that is named as a salt.
# print the numeric value only

**Q:** For `O=c1[nH]cnc2c1ncn2[C@H]1CC[C@@H](CO)O1` , write its Euclidean distance.
**A:** 1.12

**Q:** For `Oc1cccc(-c2nc(N3CCOCC3)c3oc4ncccc4c3n2)c1` , write its Euclidean distance.
**A:** 1.5

**Q:** For CC1(C)S[C@@H]2[C@H](NC(=O)[C@H](N)c3ccc(O)cc3)C(=O)N2[C@H]1C(=O)O [Amoxicillin trihydrate] , write its Euclidean distance.
**A:** 0.666

**Q:** For Cc1ccc(N(CC2=NCCN2)c2cccc(O)c2)cc1 [Phentolamine Mesylate] , write its Euclidean distance.
**A:** 0.949

**Q:** For `COc1cc2c(Oc3ccc4[nH]c(C)cc4c3F)ncnc2cc1OCCCN1CCCC1` , write its Euclidean distance.
**A:** 3.51

**Q:** For C[S+]([O-])c1ccc(-c2nc(-c3ccc(F)cc3)c(-c3ccncc3)[nH]2)cc1 (stereo not given) , write its Euclidean distance.
**A:** 1.1

**Q:** For `COc1cc2c3cc1Oc1c(OC)c(OC)cc4c1[C@@H](Cc1ccc(O)c(c1)Oc1ccc(cc1)C[C@@H]3N(C)CC2)N(C)CC4` , write its Euclidean distance.
**A:** 2.1

**Q:** For `CC[C@H]1OC(=O)[C@H](C)[C@@H](O[C@H]2C[C@@](C)(OC)[C@@H](O)[C@H](C)O2)[C@H](C)[C@@H](O[C@@H]2O[C@H](C)C[C@H](N(C)C)[C@H]2O)[C@](C)(O)C[C@@H](C)CN(C)[C@H](C)[C@@H](O)[C@]1(C)O` , write its Euclidean distance.
**A:** 1.38

**Q:** For CCN(CC)CCOC(=O)C1(C2CCCCC2)CCCCC1 [Dicyclomine HCl] , write its Euclidean distance.
**A:** 1.39

**Q:** For Clc1cccc(Cl)c1NC1=NCCN1 [Clonidine HCl] , write its Euclidean distance.
**A:** 1.32

**Q:** For `CC1(C)[C@@H](O)CC[C@]2(C)[C@H]3C(=O)C=C4[C@@H]5C[C@@](C)(C(=O)O)CC[C@]5(C)CC[C@@]4(C)[C@]3(C)CC[C@@H]12` , write its Euclidean distance.
**A:** 0.631

**Q:** For `CN1C(C(=O)Nc2ccccn2)=C(O)c2sc(Cl)cc2S1(=O)=O` , write its Euclidean distance.
**A:** 0.95

**Q:** For `C[C@H](CCC(=O)O)[C@H]1CC[C@H]2[C@@H]3[C@H](O)C[C@@H]4C[C@H](O)CC[C@]4(C)[C@H]3CC[C@]12C` , write its Euclidean distance.
**A:** 0.826

**Q:** For COc1cc2c(cc1OC)C(=O)C(CC1CCN(Cc3ccccc3)CC1)C2 (stereo not given) , write its Euclidean distance.
**A:** 0.73

**Q:** For `Cn1ncc(Cl)c1-c1cc(C(=O)N[C@H](CN)Cc2ccc(F)c(F)c2)oc1Cl` , write its Euclidean distance.
**A:** 3.3
